- Tested target: Nuclear receptor subfamily 1 group I member 2 (Homo sapiens, UniProt O75469)
- Sequence (O75469 whole entry): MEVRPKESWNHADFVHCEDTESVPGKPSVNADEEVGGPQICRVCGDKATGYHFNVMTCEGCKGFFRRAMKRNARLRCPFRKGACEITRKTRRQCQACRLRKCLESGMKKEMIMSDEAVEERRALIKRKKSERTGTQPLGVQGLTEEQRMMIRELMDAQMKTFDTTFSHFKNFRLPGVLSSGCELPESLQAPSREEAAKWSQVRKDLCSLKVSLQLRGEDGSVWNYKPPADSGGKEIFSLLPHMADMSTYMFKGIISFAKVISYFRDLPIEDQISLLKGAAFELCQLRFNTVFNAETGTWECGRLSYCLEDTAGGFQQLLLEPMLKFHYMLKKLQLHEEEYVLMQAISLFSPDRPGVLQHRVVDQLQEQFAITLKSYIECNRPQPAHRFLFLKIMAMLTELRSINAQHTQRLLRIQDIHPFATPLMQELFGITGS
- Assay notes: Antagonist activity at human PXR by transient transfection assay
pEC50: −log10 of the molar value.

Compound | pEC50
CC(O)c1ccc(N(CC(F)(F)F)S(=O)(=O)c2ccccc2)cc1 (stereo not given) | 5.00
O=S(=O)(c1ccccc1)N(CC(F)(F)F)c1ccc(C(O)(CC(F)(F)F)C(F)(F)F)cc1 (stereo not given) | 6.90
O=S(=O)(c1ccccc1)N(CC(F)(F)F)c1ccc(C(O)(C(F)(F)F)C(F)(F)C(F)(F)C(F)(F)F)cc1 (stereo not given) | 8.00
CC(O)(c1ccc(N(CC(F)(F)F)S(=O)(=O)c2ccccc2)cc1)C(F)(F)F (stereo not given) | 6.30
O=S(=O)(c1ccccc1)N(CC(F)(F)F)c1ccc(CO)cc1 | 5.00

###

- Tested target: UniProt:P55055
- Sequence (P55055 whole entry): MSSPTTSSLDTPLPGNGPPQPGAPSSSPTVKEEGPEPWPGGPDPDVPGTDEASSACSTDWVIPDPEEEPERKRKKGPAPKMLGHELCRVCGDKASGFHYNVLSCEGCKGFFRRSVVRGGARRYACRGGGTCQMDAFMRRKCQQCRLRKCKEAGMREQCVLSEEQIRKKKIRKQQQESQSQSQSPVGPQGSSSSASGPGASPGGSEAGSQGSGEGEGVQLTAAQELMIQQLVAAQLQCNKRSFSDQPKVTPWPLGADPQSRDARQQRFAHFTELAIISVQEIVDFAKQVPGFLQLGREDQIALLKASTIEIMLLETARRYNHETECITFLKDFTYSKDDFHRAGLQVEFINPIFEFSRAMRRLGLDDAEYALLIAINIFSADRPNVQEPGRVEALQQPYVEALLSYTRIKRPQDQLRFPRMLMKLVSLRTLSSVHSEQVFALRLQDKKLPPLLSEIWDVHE
- Assay notes: Antagonist activity at human LXRbeta by transient transfection assay

Compound | Tested target | Endpoint unit | Cmp | EC50
CC(=O)c1ccc(N(CC(F)(F)F)S(=O)(=O)c2ccccc2)cc1 | UniProt:P55055 | nM | > | 31600
CC(O)c1ccc(N(CC(F)(F)F)S(=O)(=O)c2ccccc2)cc1 (stereo not given) | UniProt:P55055 | nM | > | 31600
CC(O)(c1ccc(N(CC(F)(F)F)S(=O)(=O)c2ccccc2)cc1)C(F)(F)F (stereo not given) | UniProt:P55055 | nM | = | 1580
CCCC(O)(c1ccc(N(CC(F)(F)F)S(=O)(=O)c2ccccc2)cc1)C(F)(F)F (stereo not given) | UniProt:P55055 | nM | = | 2510
O=S(=O)(c1ccccc1)N(CC(F)(F)F)c1ccc(CO)cc1 | UniProt:P55055 | nM | > | 31600
